Target: wild-type CBX1 chromodomain (human, UniProt P83916 20-73)
Sequence (P83916 20-73): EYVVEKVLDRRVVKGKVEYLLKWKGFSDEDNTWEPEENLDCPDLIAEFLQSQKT
Test: fluorescence polarisation
readout type: pKd
Hey, just a heads up that pKd is the negative log base 10 of the concentration in molar.

Just so you know, measured pKd for ARTKQTARKSTGGKA (allyl-lysine at 9; tetramethylrhodamine (TAMRA) label, position not stated) [TAMRA-labeled allyl-modified H3K9 peptide] came out at 3.97
